# Measured on: adult-type mouse AChR (α1-GFP, β, δ, ε), whole-cell (Mus musculus, UniProt P02716+P04756+P20782)
# Construct: alpha1 with GFP encoded between M3 and M4; transient expression in HEK293, GFP-sorted cells; pentamer; no background mutations; with Acetylcholine receptor subunit beta
# Sequence (P20782 21-493): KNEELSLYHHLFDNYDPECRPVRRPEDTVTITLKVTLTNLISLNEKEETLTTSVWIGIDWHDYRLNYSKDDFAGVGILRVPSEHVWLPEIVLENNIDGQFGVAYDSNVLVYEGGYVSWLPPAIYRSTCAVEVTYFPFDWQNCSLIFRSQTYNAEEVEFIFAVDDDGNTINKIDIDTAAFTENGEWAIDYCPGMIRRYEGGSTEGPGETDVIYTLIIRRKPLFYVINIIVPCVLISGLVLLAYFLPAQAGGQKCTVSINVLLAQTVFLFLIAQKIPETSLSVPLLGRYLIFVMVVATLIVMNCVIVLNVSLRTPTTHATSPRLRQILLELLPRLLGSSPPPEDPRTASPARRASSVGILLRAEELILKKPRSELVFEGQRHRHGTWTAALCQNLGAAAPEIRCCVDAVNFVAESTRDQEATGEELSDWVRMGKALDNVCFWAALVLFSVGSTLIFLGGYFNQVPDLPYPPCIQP
# Sequence (P02716 25-520): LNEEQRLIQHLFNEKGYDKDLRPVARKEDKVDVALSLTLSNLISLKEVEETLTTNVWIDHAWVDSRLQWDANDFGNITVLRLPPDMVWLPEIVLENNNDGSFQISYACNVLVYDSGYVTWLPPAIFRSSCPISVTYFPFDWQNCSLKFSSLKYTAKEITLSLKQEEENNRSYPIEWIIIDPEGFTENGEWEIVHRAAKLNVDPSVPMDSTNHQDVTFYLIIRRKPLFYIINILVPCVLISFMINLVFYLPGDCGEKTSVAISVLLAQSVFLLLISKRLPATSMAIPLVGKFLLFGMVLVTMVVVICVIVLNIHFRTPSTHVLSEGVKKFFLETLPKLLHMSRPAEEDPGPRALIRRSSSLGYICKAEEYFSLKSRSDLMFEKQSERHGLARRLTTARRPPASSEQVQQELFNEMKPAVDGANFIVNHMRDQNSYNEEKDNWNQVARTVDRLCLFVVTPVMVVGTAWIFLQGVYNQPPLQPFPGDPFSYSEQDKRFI
# Sequence (P09690 24-501, further chain): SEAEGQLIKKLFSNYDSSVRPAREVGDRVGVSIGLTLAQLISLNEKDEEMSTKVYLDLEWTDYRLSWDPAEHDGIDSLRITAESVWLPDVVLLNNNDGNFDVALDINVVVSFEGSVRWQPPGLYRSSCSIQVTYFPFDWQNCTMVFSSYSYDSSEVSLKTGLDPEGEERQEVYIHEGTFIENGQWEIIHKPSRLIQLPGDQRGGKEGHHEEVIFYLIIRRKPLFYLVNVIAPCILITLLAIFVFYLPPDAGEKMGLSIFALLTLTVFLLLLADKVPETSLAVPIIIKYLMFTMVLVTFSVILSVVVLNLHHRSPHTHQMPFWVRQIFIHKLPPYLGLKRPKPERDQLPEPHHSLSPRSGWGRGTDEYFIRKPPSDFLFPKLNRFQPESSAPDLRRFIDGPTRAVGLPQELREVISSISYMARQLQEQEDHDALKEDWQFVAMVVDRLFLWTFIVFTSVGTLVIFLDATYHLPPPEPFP
# Sequence (P04756 21-457): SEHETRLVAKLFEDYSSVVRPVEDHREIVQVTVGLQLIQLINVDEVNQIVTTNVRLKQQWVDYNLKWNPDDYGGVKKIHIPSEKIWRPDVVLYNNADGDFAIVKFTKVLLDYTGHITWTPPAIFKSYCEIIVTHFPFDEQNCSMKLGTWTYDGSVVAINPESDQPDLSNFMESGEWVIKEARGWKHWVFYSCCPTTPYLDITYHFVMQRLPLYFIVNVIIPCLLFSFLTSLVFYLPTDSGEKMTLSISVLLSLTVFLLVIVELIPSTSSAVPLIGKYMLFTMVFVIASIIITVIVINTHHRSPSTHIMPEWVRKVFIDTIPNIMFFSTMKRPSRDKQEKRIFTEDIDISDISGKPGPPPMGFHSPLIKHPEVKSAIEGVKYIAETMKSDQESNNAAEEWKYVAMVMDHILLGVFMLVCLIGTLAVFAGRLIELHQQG
# Experiment: automated whole-cell patch clamp (IonFlux […]), concentration-response
Exercise: state measured EC50 for each of the compounds provided.
Give your result as the value with the unit written after it.

>  <Smiles text>
C[N+](C)(C)CCOC(N)=O

>  <EC50>
72.2 µM

$$$$

Now look at this entry.
If you can, please state the reported EC50 value of `C[N+](C)(C)C` . 843 µM
